meta.source: patent US20030232986A1

TGT: Caspase-1 (Homo sapiens, UniProt P29466)
Sequence (P29466 120-297 limits assumed): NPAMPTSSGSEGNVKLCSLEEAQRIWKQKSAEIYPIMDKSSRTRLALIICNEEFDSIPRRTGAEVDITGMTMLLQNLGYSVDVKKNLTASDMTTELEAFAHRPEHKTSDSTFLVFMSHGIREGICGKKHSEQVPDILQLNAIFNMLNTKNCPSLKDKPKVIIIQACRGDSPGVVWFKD
Sequence (P29466 317-404 limits assumed): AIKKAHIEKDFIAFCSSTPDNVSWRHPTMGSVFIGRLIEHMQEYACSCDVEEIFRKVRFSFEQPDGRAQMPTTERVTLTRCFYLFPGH
METHOD: Caspase-1 enzyme inhibition (Ki)
Assay type: biochemical
APPLIED_CONDITIONS: substrate Suc-YVAD-pNA 80 μM, 37° C., pH 7.5
Where a SMILES comes first, the peptide text is derived from it. The star is where a group is joined. Bz = O=C(c1ccccc1)*
QUANTITY_MEASURED: Ki

Before answering, review these 3 worked examples.
# COMPOUND, Ki
data = [
    ("CC(C)(C)[C@H](NC(=O)c1ccc(N)c(Cl)c1)C(=O)N1CCCC1C(=O)N[C@H](C=O)CC(=O)O (stereo partly drawn)", "< 10 nM"),
    ("CS(=O)(=O)CC(NC(=O)c1cc(Cl)c(O)c(Cl)c1)C(=O)N1CCCC1C(=O)NC(C=O)CC(=O)O (stereo not drawn) [Example 20s]", "< 10 nM"),
    ("CC(=O)N1CCN(C(=O)[C@@H](NC(=O)c2ccc(N)c(Cl)c2)C(C)C)[C@H](C(=O)N[C@H](C=O)CC(=O)O)C1 [Example 17d]", "10 to 1000 nM"),
]

For COc1cc(NC(C)=O)c(Cl)cc1C(=O)N[C@@H](C)C(=O)N1CCC[C@H]1C(=O)N[C@H](C=O)CC(=O)O [Example 122r] , what is its reported Ki? 10 to 1000 nM

Tell me the measured Ki of `C[C@H](NC(=O)C(=O)c1ccccc1)C(=O)N1CCC[C@H]1C(=O)N[C@H](C=O)CC(=O)O` , please. 10 to 1000 nM

Which Ki is reported for this compound? C[C@H](NC(=O)c1ccccc1)C(=O)N1CCC[C@H]1C(=O)N[C@H](C=O)CC(=O)O [Example 7b] (Bz-Ala-Pro-Asp-aldehyde) 10 to 1000 nM
